Assign GI50 to each entry below.
Tested on: MOLT-4
Measurement notes: NCI tumour cell line growth inhibition, 48 h
Activity calls are given as the source filed them. Rule as the data show it: active = GI50 up to about 1.1 µM and inactive = higher.

Determine reported GI50 for COC(=O)c1ccc(/C=C2\CCc3ccccc3C2=O)cc1 ; test system: MOLT-4.
> 100 µM (inactive)

Determine reported GI50 for COc1ccc(/C=C2/SC(c3ccc(Cl)cc3)N(NC(=O)CCCCCCCCC(=O)NN3C(=O)/C(=C\c4ccc(OC)c(OC)c4)SC3c3ccc(Cl)cc3)C2=O)cc1OC (stereo not given) ; test system: MOLT-4.
47.5 µM (inactive)

Determine reported GI50 for Cc1c(-c2ccccc2)n[nH]c1NC1(C)C(=O)N(/N=C/c2ccccc2)N=C1c1ccccc1 (stereo not given) ; test system: MOLT-4.
10.2 µM (inactive)

Determine reported GI50 for COc1ccc(NCC#N)cc1 ; test system: MOLT-4.
> 100 µM (inactive)

Determine reported GI50 for O=C1c2ccccc2CCCCCCCCCCC12OCCCO2 ; test system: MOLT-4.
17.7 µM (inactive)

Determine reported GI50 for COc1ccc(C=O)c(NC(=O)C(C)C)c1 ; test system: MOLT-4.
21.3 µM (inactive)

Determine reported GI50 for CCC1=NC(C(F)(F)F)(C(F)(F)F)N=C(/N=C(/N)N(C)C(C(C)C)P(=O)(OC(C)C)OC(C)C)O1 (stereo not given) ; test system: MOLT-4.
> 100 µM (inactive)

Determine reported GI50 for COc1cccc(NC(=O)CC(=O)N2NC(c3ccccc3)C(/N=N/c3cccc(C(=O)O)c3)C2=O)c1 (stereo not given) ; test system: MOLT-4.
86.3 µM (inactive)

Determine reported GI50 for COC(=O)/C=C1\CCC2[C@@H](C(=O)CC3[C@]2(C)CCC[C@@]3(C)C(=O)OC)C1C (stereo not given in full) ; test system: MOLT-4.
6.37 µM (inactive)

Determine reported GI50 for Cn1cc2c(n1)c(N/N=C/c1ccccc1)nn1nnnc21 ; test system: MOLT-4.
> 100 µM (inactive)

Determine reported GI50 for NNC(=O)CC(=O)Nc1ccc(S(=O)(=O)c2ccc(NC(=O)CC(=O)NN)cc2)cc1 ; test system: MOLT-4.
> 100 µM (inactive)

Determine reported GI50 for NC(=O)NCCCC(NC(=O)OCCCCCCn1ccc(=O)[nH]c1=O)C(=O)O (stereo not given) ; test system: MOLT-4.
> 100 µM (inactive)

Determine reported GI50 for CCOC(=O)Cc1nnc2n(-c3ccccc3)c(=O)c3ccccc3n12 ; test system: MOLT-4.
> 100 µM (inactive)

Determine reported GI50 for N#Cc1c(NC(=O)C(F)(F)F)sc2c3c(=O)c4ccccc4c(=O)c=3oc3ccccc3c12 ; test system: MOLT-4.
11.7 µM (inactive)

Determine reported GI50 for CCC(c1ccc(N(C)C)cc1)C1NC(=S)NC1=O (stereo not given) ; test system: MOLT-4.
30.7 µM (inactive)

Determine reported GI50 for O=C(CNC(=O)c1ccccc1)Oc1c(Cl)c(Cl)c(Cl)c(Cl)c1Cl ; test system: MOLT-4.
29 µM (inactive)

Determine reported GI50 for CSc1nc2c(c(=O)n1C)N=C(c1ccccc1)[C@H](C(CC(=O)c1ccccc1)c1ccccc1)C(c1ccccc1)N2 (stereo not given in full) ; test system: MOLT-4.
5.94 µM (inactive)

Determine reported GI50 for CN(C(=O)C1CCCCCC1=O)c1ccccc1Cl (stereo not given) ; test system: MOLT-4.
> 100 µM (inactive)

Determine reported GI50 for C=CC(C)(C)/C(=C\CO[Si](C(C)C)(C(C)C)C(C)C)C(=O)N(C)c1ccccc1I ; test system: MOLT-4.
9.79 µM (inactive)

Determine reported GI50 for Cc1ccccc1OC(C)C(=O)NN1C(=O)CC(=O)N(c2ccccc2)C1=S (stereo not given) ; test system: MOLT-4.
34 µM (inactive)
